# Test system: 991263-137-R1-J2-PDC complex spheroid viability
# METHOD SUMMARY: Anticancer human tumor 991263-137-R1-J2-PDC patient-derived colon adenocarcinoma cell line growth inhibition [POLQ]
# RECORDED CONDITIONS: second compound 0.0316 µM; first compound 10 µM; stronger effect = lower value
Please respond with reported viability, T/C for every item in the list.

What value of viability, T/C has been recorded for this entry: COc1ccc([C@@H](O)c2cc(-c3ncnc4cc(N5CCOCC5)ccc34)c(F)cc2Cl)nn1 + COC1C(OC(N)=O)C(O)C(Oc2ccc3c(O)c(NC(=O)c4ccc(O)c(CC=C(C)C)c4)c(=O)oc3c2C)OC1(C)C
31.5%

What value of viability, T/C has been recorded for this entry: CNCc1ccc(-c2[nH]c3cc(F)cc4c3c2CCNC4=O)cc1 + Cc1cccc(N(C)C(=O)C2C(O)CCN2c2nc(C)cc(C(F)(F)F)c2C#N)c1
106%

What value of viability, T/C has been recorded for this entry: C=CC(=O)N1CCN(c2nc(=O)n(-c3c(C)ccnc3C(C)C)c3nc(-c4c(O)cccc4F)c(F)cc23)C(C)C1 (stereo not drawn) + COC1C(OC(N)=O)C(O)C(Oc2ccc3c(O)c(NC(=O)c4ccc(O)c(CC=C(C)C)c4)c(=O)oc3c2C)OC1(C)C
93.3%

###

Please respond with reported viability, T/C for every item in the list.
# Test system: 991263-137-R1-J2-PDC complex spheroid viability
# METHOD SUMMARY: Anticancer human tumor 991263-137-R1-J2-PDC cell line growth inhibition [POLQ];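 further: spheroids exposed to compounds for 7 days before readout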;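 on viability, T/C: 100% = DMSO vehicle control viability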
# RECORDED CONDITIONS: second compound 0.1 µM; first compound 0.000316 µM; stronger effect = lower value
Hi! Could you send only the number? It should be in %, unit omitted.

viability, T/C of Cn1ncnc1[C@H]1c2n[nH]c(=O)c3cc(F)cc(c23)N[C@@H]1c1ccc(F)cc1 + COC1C(OC(N)=O)C(O)C(Oc2ccc3c(O)c(NC(=O)c4ccc(O)c(CC=C(C)C)c4)c(=O)oc3c2C)OC1(C)C on 991263-137-R1-J2-PDC complex spheroid viability?
99.8

viability, T/C of CC[C@@]1(O)C(=O)OCc2c1cc1n(c2=O)Cc2cc3c(CN(C)C)c(O)ccc3nc2-1 + Cc1cccc(N(C)C(=O)C2C(O)CCN2c2nc(C)cc(C(F)(F)F)c2C#N)c1 on 991263-137-R1-J2-PDC complex spheroid viability?
112

viability, T/C of Cn1ncnc1[C@H]1c2n[nH]c(=O)c3cc(F)cc(c23)N[C@@H]1c1ccc(F)cc1 + Nc1ccc(C#CCN(C(=O)Cc2ncc(C(F)(F)F)cc2C(F)(F)F)c2ccc(F)cc2)nn1 on 991263-137-R1-J2-PDC complex spheroid viability?
99.1

###

# Tested on: 991263-137-R1-J2-PDC complex spheroid viability
# METHOD SUMMARY: Anticancer human tumor 991263-137-R1-J2-PDC cell line growth inhibition [POLQ];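 further: spheroids exposed to compounds for 7 days before readout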;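 on viability, T/C: 100% = DMSO vehicle control viability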
# RECORDED CONDITIONS: second compound 0.0316 µM; first compound 0.0316 µM; stronger effect = lower value
# Description: Multicellular complex tumor spheroid response to Polymerase (POL) inhibitors (novobiocin, ART-558, RP6685) in combination with a variety of drugs and investigational agents in selected tumor cell lines The POL inhibitors (novobiocin, ART-558, and RP6685) were evaluated both individually and in combination with standard of care and investigational anticancer small molecules within a complex spheroid model of solid tumors. . […]
MEASURED PARAMETER: viability, T/C

viability, T/C of COc1ccc([C@@H](O)c2cc(-c3ncnc4cc(N5CCOCC5)ccc34)c(F)cc2Cl)nn1 + Cc1cccc(N(C)C(=O)C2C(O)CCN2c2nc(C)cc(C(F)(F)F)c2C#N)c1 on 991263-137-R1-J2-PDC complex spheroid viability?
101%

viability, T/C of COc1cc(C2c3cc4c(cc3C(OC3OC5COC(C)OC5C(O)C3O)C3COC(=O)C23)OCO4)cc(OC)c1O (stereo not drawn) + Nc1ccc(C#CCN(C(=O)Cc2ncc(C(F)(F)F)cc2C(F)(F)F)c2ccc(F)cc2)nn1 on 991263-137-R1-J2-PDC complex spheroid viability?
106%

viability, T/C of COc1ccc([C@@H](O)c2cc(-c3ncnc4cc(N5CCOCC5)ccc34)c(F)cc2Cl)nn1 + Nc1ccc(C#CCN(C(=O)Cc2ncc(C(F)(F)F)cc2C(F)(F)F)c2ccc(F)cc2)nn1 on 991263-137-R1-J2-PDC complex spheroid viability?
110%

###

# Test system: 991263-137-R1-J2-PDC complex spheroid viability
# METHOD SUMMARY: Anticancer human tumor 991263-137-R1-J2-PDC cell line growth inhibition [POLQ];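 further: spheroids exposed to compounds for 7 days before readout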
# RECORDED CONDITIONS: curve of first compound; second compound 10 µM
pIC50: −log10 of the molar value.
MEASURED PARAMETER: pIC50

pIC50 of O=c1[nH]cc(F)c(=O)[nH]1 + COC1C(OC(N)=O)C(O)C(Oc2ccc3c(O)c(NC(=O)c4ccc(O)c(CC=C(C)C)c4)c(=O)oc3c2C)OC1(C)C on 991263-137-R1-J2-PDC complex spheroid viability?
< 5.00

pIC50 of CCc1cc2c(N3CCc4c(cc(Cn5ccnc5)cc4-c4cn(C)nc4C(F)(F)F)C3=O)cc(C)nc2c(OC)n1 + Cc1cccc(N(C)C(=O)C2C(O)CCN2c2nc(C)cc(C(F)(F)F)c2C#N)c1 on 991263-137-R1-J2-PDC complex spheroid viability?
< 5.00

pIC50 of CCCS(=O)(=O)Nc1ccc(F)c(C(=O)c2c[nH]c3ncc(-c4ccc(Cl)cc4)cc23)c1F + COC1C(OC(N)=O)C(O)C(Oc2ccc3c(O)c(NC(=O)c4ccc(O)c(CC=C(C)C)c4)c(=O)oc3c2C)OC1(C)C on 991263-137-R1-J2-PDC complex spheroid viability?
< 5.00

pIC50 of CCc1cc2c(N3CCc4c(cc(Cn5ccnc5)cc4-c4cn(C)nc4C(F)(F)F)C3=O)cc(C)nc2c(OC)n1 + COC1C(OC(N)=O)C(O)C(Oc2ccc3c(O)c(NC(=O)c4ccc(O)c(CC=C(C)C)c4)c(=O)oc3c2C)OC1(C)C on 991263-137-R1-J2-PDC complex spheroid viability?
< 5.00

pIC50 of CCc1c2c(nc3ccc(O)cc13)-c1cc3c(c(=O)n1C2)COC(=O)[C@]3(O)CC + COC1C(OC(N)=O)C(O)C(Oc2ccc3c(O)c(NC(=O)c4ccc(O)c(CC=C(C)C)c4)c(=O)oc3c2C)OC1(C)C on 991263-137-R1-J2-PDC complex spheroid viability?
7.23

pIC50 of O=C(Nc1ccc(O)c(NS(=O)(=O)c2ccc(F)cc2)c1)c1ccc(-c2ccccc2)cc1 + Cc1cccc(N(C)C(=O)C2C(O)CCN2c2nc(C)cc(C(F)(F)F)c2C#N)c1 on 991263-137-R1-J2-PDC complex spheroid viability?
< 5.00

pIC50 of Cn1ncnc1[C@H]1c2n[nH]c(=O)c3cc(F)cc(c23)N[C@@H]1c1ccc(F)cc1 + COC1C(OC(N)=O)C(O)C(Oc2ccc3c(O)c(NC(=O)c4ccc(O)c(CC=C(C)C)c4)c(=O)oc3c2C)OC1(C)C on 991263-137-R1-J2-PDC complex spheroid viability?
< 7.00

pIC50 of CC(=O)O[C@H]1C(=O)[C@@]2(C)[C@H]([C@H](OC(=O)c3ccccc3)[C@]3(O)C[C@H](OC(=O)[C@H](O)[C@@H](NC(=O)c4ccccc4)c4ccccc4)C(C)=C1C3(C)C)[C@]1(OC(C)=O)CO[C@@H]1C[C@@H]2O + Cc1cccc(N(C)C(=O)C2C(O)CCN2c2nc(C)cc(C(F)(F)F)c2C#N)c1 on 991263-137-R1-J2-PDC complex spheroid viability?
6.53

pIC50 of COc1cccc(OCCCN)c1-c1cc(Nc2cnc(C#N)cn2)n[nH]1 + COC1C(OC(N)=O)C(O)C(Oc2ccc3c(O)c(NC(=O)c4ccc(O)c(CC=C(C)C)c4)c(=O)oc3c2C)OC1(C)C on 991263-137-R1-J2-PDC complex spheroid viability?
6.29

pIC50 of CC(C)n1c(=O)n(C)c2cnc3cc(F)c(-c4ccc(OCCCN5CCCCC5)nc4)cc3c21 + Cc1cccc(N(C)C(=O)C2C(O)CCN2c2nc(C)cc(C(F)(F)F)c2C#N)c1 on 991263-137-R1-J2-PDC complex spheroid viability?
< 5.00

###

# System: 991263-137-R1-J2-PDC complex spheroid viability
# METHOD SUMMARY: Anticancer human tumor 991263-137-R1-J2-PDC cell line growth inhibition [POLQ];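 further: spheroids exposed to compounds for 7 days before readout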;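 on viability, T/C: 100% = DMSO vehicle control viability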
# RECORDED CONDITIONS: second compound 0.0316 µM; first compound 0.0316 µM; stronger effect = lower value
MEASURED PARAMETER: viability, T/C (%)
Hi! Could you send only the number? It should be in %, unit omitted.

What value of viability, T/C has been recorded for this entry: Cn1ncnc1[C@H]1c2n[nH]c(=O)c3cc(F)cc(c23)N[C@@H]1c1ccc(F)cc1 + COC1C(OC(N)=O)C(O)C(Oc2ccc3c(O)c(NC(=O)c4ccc(O)c(CC=C(C)C)c4)c(=O)oc3c2C)OC1(C)C
79.3

What value of viability, T/C has been recorded for this entry: C=CCn1c(=O)c2cnc(Nc3ccc(N4CCN(C)CC4)cc3)nc2n1-c1cccc(C(C)(C)O)n1 + Cc1cccc(N(C)C(=O)C2C(O)CCN2c2nc(C)cc(C(F)(F)F)c2C#N)c1
103

What value of viability, T/C has been recorded for this entry: CCc1cc2c(N3CCc4c(cc(Cn5ccnc5)cc4-c4cn(C)nc4C(F)(F)F)C3=O)ccnc2c(OC)n1 + Cc1cccc(N(C)C(=O)C2C(O)CCN2c2nc(C)cc(C(F)(F)F)c2C#N)c1
95.3
